Measured Maximum inhibition rate %; hIL36γ; IL-8 production of individual entries
- tested target: T1, IL-36R naturally expressed on OVCAR8 cells and on normal human epidermal keratinocytes (NHK cells) (human, UniProt Q9HB29 20-575)
- T1 sequence (looked up): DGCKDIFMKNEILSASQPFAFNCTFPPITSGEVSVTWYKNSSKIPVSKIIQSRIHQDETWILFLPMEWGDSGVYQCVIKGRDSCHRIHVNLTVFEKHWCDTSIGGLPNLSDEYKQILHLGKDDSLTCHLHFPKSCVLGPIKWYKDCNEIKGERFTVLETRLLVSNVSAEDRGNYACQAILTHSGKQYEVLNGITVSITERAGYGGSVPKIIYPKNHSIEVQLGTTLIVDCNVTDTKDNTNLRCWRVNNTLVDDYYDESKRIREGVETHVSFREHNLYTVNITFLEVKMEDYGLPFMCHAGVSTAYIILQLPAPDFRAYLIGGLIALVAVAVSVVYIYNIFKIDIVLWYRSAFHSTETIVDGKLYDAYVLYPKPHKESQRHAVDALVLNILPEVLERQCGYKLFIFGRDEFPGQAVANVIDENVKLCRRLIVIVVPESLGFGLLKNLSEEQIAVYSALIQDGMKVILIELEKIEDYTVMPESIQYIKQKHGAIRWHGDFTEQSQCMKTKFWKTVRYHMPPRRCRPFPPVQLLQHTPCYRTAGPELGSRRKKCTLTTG
- protocol text: cell-based or functional assay

binder	assay result
hz84C4-2.4 (antibody, human IgG4 S228P, kappa, V domains shown, Humanized, human IgG4 / kappa) VH: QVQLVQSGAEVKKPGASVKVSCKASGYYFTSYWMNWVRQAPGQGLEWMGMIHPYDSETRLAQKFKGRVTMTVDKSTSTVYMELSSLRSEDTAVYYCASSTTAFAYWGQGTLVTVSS VL: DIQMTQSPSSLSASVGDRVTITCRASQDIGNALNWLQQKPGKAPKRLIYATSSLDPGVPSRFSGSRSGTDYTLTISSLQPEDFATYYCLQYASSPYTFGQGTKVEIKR	99.3%

Which Maximum inhibition rate %; hIL36γ; IL-8 production is listed for hz84C4-1.1 (antibody, human IgG4 S228P, kappa, V domains shown, Humanized, human IgG4 / kappa) VH: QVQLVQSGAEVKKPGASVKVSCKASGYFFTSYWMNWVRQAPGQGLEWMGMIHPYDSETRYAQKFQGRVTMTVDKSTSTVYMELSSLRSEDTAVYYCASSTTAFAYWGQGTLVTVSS VL: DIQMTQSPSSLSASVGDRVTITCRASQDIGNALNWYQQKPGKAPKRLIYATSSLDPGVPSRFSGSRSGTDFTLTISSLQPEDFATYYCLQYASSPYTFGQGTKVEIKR ?
99.6%

Name the recorded Maximum inhibition rate %; hIL36γ; IL-8 production for hz84C4-2.1 (antibody, human IgG4 S228P, kappa, V domains shown, Humanized, human IgG4 / kappa) VH: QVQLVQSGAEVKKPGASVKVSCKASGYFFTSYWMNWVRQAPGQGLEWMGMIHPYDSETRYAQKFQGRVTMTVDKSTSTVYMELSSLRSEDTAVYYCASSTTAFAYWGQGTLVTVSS VL: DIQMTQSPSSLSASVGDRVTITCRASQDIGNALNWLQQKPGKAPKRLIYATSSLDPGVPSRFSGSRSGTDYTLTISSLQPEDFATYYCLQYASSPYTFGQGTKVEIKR .
99.6%
